Hi there, I'd appreciate the recorded SPOT peptide array binding signal intensity for every entry that follows.
target_desc: SpSla1-D3
experimental_details: SPOT peptide array binding signal intensity (averaged, normalized) (arbitrary units (background-subtracted, floor 0; scale differs between SH3 domains)); higher = stronger binding of the SH3 domain to the peptide
Numbers only.

Example entries and their recorded answers appear below.
KKEKKPPKIPKKVYT	3.5
VGFRLALKFPSRITG	260
QLMKNLPKIPLLNDI	251
GATNNAPTLPKRKNP	15
VTHRLRISIPGITGR	10

Pending binder:
Look up SPOT peptide array binding signal intensity of NSMRPPLLIPAATTK and report it. 200

Data origin: the supplement of paper PMC4466140
